Provide the recorded HOCl % lysis for the entries that follow.
Test system: human red blood cells
Measurement Notes: Hypochlorite (HOCl) hemolysis of human red blood cells
Assay type: cell-based
Assay Conditions: activity compared to ascorbic acid
I only need the number, in %, no unit after it.

Query string: Given O=C1O[C@H]([C@@H](O)CO)C(O)=C1O [Ascorbic acid, reference compound] , respond with its HOCl % lysis.
Result string: 100

Query string: Given CC1(C)CC(O)CC(C)(C)N1 [Tetramethyl-4-piperidinol, reference compound] , respond with its HOCl % lysis.
Result string: 0

Query string: Given CC1(C)CC(O)CC(C)(C)N1[O] [reference compound] , respond with its HOCl % lysis.
Result string: 50

Query string: Given Nc1cc(=O)[nH]c(=O)n1C1CCc2ccccc21 (stereo not drawn) [Compound 1] , respond with its HOCl % lysis.
Result string: 75

Query string: Given CN(C)c1ccc2c(c1)C(Nc1cc(=O)[nH]c(=O)[nH]1)CC2.Cl (stereo not drawn) [Compound 7] , respond with its HOCl % lysis.
Result string: 55

Query string: Given Nc1c(N)n(C2CCc3ccccc32)c(=O)[nH]c1=O (stereo not drawn) [Compound 3] , respond with its HOCl % lysis.
Result string: 72

Query string: Given O=c1cc(NC2CCc3ccccc32)[nH]c(=O)[nH]1 (stereo not drawn) [Compound 5] , respond with its HOCl % lysis.
Result string: 100

Query string: Given CC1(C)CC(O)CC(C)(C)N1O [N-Hydroxy-tetramethyl-4-piperidinol, reference compound] , respond with its HOCl % lysis.
Result string: 52

Query string: Given CN(C)c1cccc2c1CCC2Nc1cc(=O)[nH]c(=O)[nH]1.Cl (stereo not drawn) [Compound 6] , respond with its HOCl % lysis.
Result string: 44

----------
Provide the recorded % Chemiluminescence inhibition for the entries that follow.
Measurement Notes: Chemical chemiluminescence (without cells): Luminol+SIN-1+selenite+BSA
Design: concentration or dose not given beside the values
Assay Conditions: compared to ascorbic acid
I only need the number, in %, no unit after it.

Query string: Given CC1(C)CC(O)CC(C)(C)N1 [Tetramethyl-4-piperidinol, reference compound] , respond with its % Chemiluminescence inhibition.
Result string: 1.2

Query string: Given O=c1cc(NC2CCc3ccccc32)[nH]c(=O)[nH]1 (stereo not shown) [Compound 5] , respond with its % Chemiluminescence inhibition.
Result string: 75

Query string: Given CN(C)c1ccc2c(c1)C(Nc1cc(=O)[nH]c(=O)[nH]1)CC2.Cl (stereo not shown) [Compound 7] , respond with its % Chemiluminescence inhibition.
Result string: 62

Query string: Given Nc1cc(=O)[nH]c(=O)n1C1CCc2ccccc21 (stereo not shown) [Compound 1] , respond with its % Chemiluminescence inhibition.
Result string: 0
